// reported FACS-Seq fitted mean (log10) for each item listed
B1: library; a variant is named by its letters at N, in order (parent)
chain: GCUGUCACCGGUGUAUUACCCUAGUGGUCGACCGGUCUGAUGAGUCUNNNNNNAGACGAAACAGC

- Variants of: B1
- ASSAY_NAME: FACS-Seq fitted mean relative fluorescence mCherry/BFP with ligand (log10 relative fluorescence); ligand: hypoxanthine (xanthine aptamer); ligand concentration (+) FACS-Seq: 5 mM; higher = higher reporter protein expression
- CONDITION_SUMMARY: HEK293T, ligand present: yes
Quick one: just the number, no unit, thanks!

I have this variant here, GCUGUCACCGGUGUAUUACCCUAGUGGUCGACCGGUCUGAUGAGUCUCUCGAAAGACGAAACAGC , and I need its recorded FACS-Seq fitted mean (log10).
0.395

I have this variant here, GCUGUCACCGGUGUAUUACCCUAGUGGUCGACCGGUCUGAUGAGUCUGCGGGAAGACGAAACAGC , and I need its recorded FACS-Seq fitted mean (log10).
0.591

I have this variant here, GCUGUCACCGGUGUAUUACCCUAGUGGUCGACCGGUCUGAUGAGUCUAUUACAAGACGAAACAGC , and I need its recorded FACS-Seq fitted mean (log10).
0.407

I have this variant here, GCUGUCACCGGUGUAUUACCCUAGUGGUCGACCGGUCUGAUGAGUCUCAUGGGAGACGAAACAGC , and I need its recorded FACS-Seq fitted mean (log10).
0.603

I have this variant here, GCUGUCACCGGUGUAUUACCCUAGUGGUCGACCGGUCUGAUGAGUCUCUGAUAAGACGAAACAGC , and I need its recorded FACS-Seq fitted mean (log10).
0.601
